Recorded measurements of growth, one per entry
test system: SF-268 CNS; experiment: NCI-60 one-dose screen, 48 h (100 = growth as untreated, 0 = no growth, -100 = all killed); conditions: 10 µM
The panel holds about 83,000 compounds, 20% with a hit somewhere; the sample as a whole holds those more often.
Reply numerically in %, unit not repeated.

The cases that follow already have their growth on record.
> print(dat)
                                   molecule  reported.result
1  COc1cccc2nc(Nc3ccc(F)c(NC(=O)c4ccc(CN5CCN(C)CC5)c(C(F)(F)F)c4)c3)ccc12             22.2
2  O=C(/C=C/Nc1ccccc1)c1ccc2c(c1)Nc1ccccc1S2             81.2
3  O=C(NC(=S)N1CCN(c2ncnc3c2cnn3-c2ccccc2)CC1)c1ccc(Cl)cc1             41.2

Find the measured growth of C=C1CCC2C3(C)COC(c4cccc(F)c4)OC3CCC2(C)C1CC(O)C1=CCOC1=O (configuration not stated) with SF-268 CNS as test system.
106

Find the measured growth of CC1(C)CC[C@]2(C(=O)N3CCOCC3)CC[C@]3(C)C(=CC[C@@H]4[C@@]5(C)CC[C@H](NCO)C(C)(C)[C@@H]5CC[C@]43C)[C@H]2C1 with SF-268 CNS as test system.
-76.5

Find the measured growth of CN1CCN(c2ccc(Nc3nc(N4CCN(S(=O)(=O)c5ccc(Cl)cc5)CC4)c4sccc4n3)cc2)CC1 with SF-268 CNS as test system.
52.9

Find the measured growth of COc1ccc(/C=C/C(=O)c2ccc(N3CCN(C)CC3)cc2)c(C(F)(F)F)c1 with SF-268 CNS as test system.
70.8

Find the measured growth of O=C(Nc1ccncc1)c1ccc(-n2c(=O)[nH]c3ccccc3c2=O)cc1 with SF-268 CNS as test system.
110

Find the measured growth of CN1CCN(c2ccc(C(=O)/C=C/c3ccc(C#N)cc3)cc2)CC1 with SF-268 CNS as test system.
107

Find the measured growth of CC(=O)Oc1ccccc1C(=O)Oc1ccc(C(=O)/C=C/c2ccncc2)cc1 with SF-268 CNS as test system.
75

---

test system: PC-3 prostate; assay: NCI-60 one-dose screen, 48 h (100 = growth as untreated, 0 = no growth, -100 = all killed); details: 10 µM
Compounds without any hit were thinned out: in the full panel of roughly 83,000, 20% have a hit.
Class YES: growth at least 20%. Class NO: growth below 20%.

> print(dat)
                                   molecule  label.value
1    COc1ccc2[nH]cc(/C=N/Nc3cccc(Cl)n3)c2c1          YES
2  CCN1CCN(c2ccc(NC(=O)Nc3ccc4c(c3F)CCN4c3ccnc(C(=O)NC)c3)cc2C(F)(F)F)CC1          YES
3  Cc1ccc(-c2cc(-c3cc4ccccc4nc3Cl)[nH]c(=O)n2)cc1          YES
4  Nc1nnc(-c2c[nH]c3ncccc23)c(-c2c[nH]c3ccc(Br)cc23)n1          YES
5  O=C(c1ccc(Cl)cc1)C1[C@H](c2ccccc2Br)[C@@H](c2ccccc2)NC12C(=O)Nc1ccc(Br)cc12 (stereo not given in full)           NO

Say whether COc1ccc(N(C)c2cc(C#N)nc3ccccc23)cc1/C=C/C(=O)NO shows growth of 20% or more.
NO

Say whether CN1C(=O)/C(=C/c2ccc3ncsc3c2)NC1=NC12CC3CC(CC(O)(C3)C1)C2 shows growth of 20% or more.
NO

Say whether COc1ccc(/C(CSc2nnc(-c3c[nH]c4ccccc34)n2-c2ccccc2)=N/O)cc1 shows growth of 20% or more.
YES

Say whether O=C(CS(=O)(=O)c1oc(-c2ccc(Cl)cc2)nc1S(=O)(=O)c1ccccc1)N1CCCC1 shows growth of 20% or more.
YES

Say whether CCCCOc1ccc(Nc2nc3ccccc3nc2Nc2ccc(OCCCC)cc2)cc1 shows growth of 20% or more.
YES

---

system: SNB-19 CNS; assay: NCI-60 one-dose screen, 48 h (100 = growth as untreated, 0 = no growth, -100 = all killed); conditions: 10 µM
This is part of a sample that, as a whole, favours compounds with a hit. Of some 83,000 tested, about 20% had one in any assay.
Recorded measurements of growth, one per entry
Reply numerically in %, unit not repeated.

The cases that follow already have their growth on record.
> print(dat)
                                   compound  measurement.name  unit.label  reported.result
1  O=C(Nc1ccc(Cl)c(C(F)(F)F)c1)c1cncc(C#Cc2cnc3ccc(N4CCOCC4)nn23)c1            growth           %            -10.8
2  Cn1c(O)c(N=Nc2nc(-c3cc4ccccc4oc3=O)cs2)c2cc(Br)ccc21            growth           %             12.5
3  O=C(c1ccc(O)cc1)C1[C@H](c2ccccc2Br)[C@@H](c2ccccc2)NC12C(=O)Nc1ccc(Cl)cc12 (stereo not given in full)            growth           %             17.2
4  COc1ccc2[nH]c(=O)c(CSc3ccc(Nc4nccc(-c5ccc(Cl)cc5)n4)cc3)cc2c1            growth           %             71.6

Turning now to a further record.
Annotate the compound OCCCNc1oc(-c2ccccc2)nc1[P+](c1ccccc1)(c1ccccc1)c1ccccc1 with its measured growth.
4.56

---

test system: HOP-62 NSCLC; assay: NCI-60 one-dose screen, 48 h (100 = growth as untreated, 0 = no growth, -100 = all killed); conditions: 10 µM
About 83,000 compounds went through this panel and 20% of them were active in at least one assay; those are over-represented in the sample as a whole.
Class True: growth at least 30%. Class False: growth below 30%.

> print(dat)
                                   compound  target.system  label.value
1  CC(=O)Nc1ccc(-c2cn(-c3cccc(C(=O)Nc4cc(CN5CCOCC5)cc(C(F)(F)F)c4)c3)nn2)cn1   HOP-62 NSCLC        False
2  C/C(=N\N=C\c1ccc(N(C)C)cc1)c1ccc2c(c1)Nc1ccccc1S2   HOP-62 NSCLC         True
3  CCCCSc1nc(Nc2ccc(/C(C)=N/NC(N)=S)cc2)c(C#N)c(-c2ccccc2)n1   HOP-62 NSCLC         True

Say whether COc1ccc(C(=O)/C=C/c2cc(F)cc(C(F)(F)F)c2)cc1S(N)(=O)=O shows growth of 30% or more.
False

Say whether COc1cc2c(cc1OC)/C(=C\c1sc(Nc3ccc(O)cc3)nc1O)C(C(=O)O)=N2 shows growth of 30% or more.
True

Say whether O=C(Nc1nc2ccccc2s1)c1ccc(Br)cc1 shows growth of 30% or more.
True

Say whether CC(C)(C)c1ccc(NCc2cn(-c3ccc(C(=O)O)cc3)nc2-c2ccc(C#N)cc2)cc1 shows growth of 30% or more.
True

Say whether CCN(CC)CCOc1ccc(C(=C(C)c2ccccc2)c2ccc(OCCN(CC)CC)cc2)cc1 shows growth of 30% or more.
False

Say whether C#Cc1ccc(S(=O)(=O)Nc2cccc(-c3csc(NC(C)=O)n3)c2)cc1 shows growth of 30% or more.
True

Say whether Cn1cc(-c2cc(N)n3nc(-c4c[nH]c5ccc(Br)cc45)cc3n2)c2cccnc21 shows growth of 30% or more.
False

Say whether O=C1Nc2ccc(Cl)cc2/C1=C/c1ccc(OCc2ccc(Br)cc2F)cc1 shows growth of 30% or more.
False

Say whether N#Cc1c(NC(=O)c2ccc(C(O)(C(F)(F)F)C(F)(F)F)cc2)sc2c1CCC(=O)C2 shows growth of 30% or more.
False

Say whether O=C1N/C(=N\c2nccs2)S/C1=C\c1cccs1 shows growth of 30% or more.
True

Say whether CCOC(=O)c1sc(N/N=C(\C)c2ccc3c(c2)Nc2ccccc2S3)nc1C shows growth of 30% or more.
True

Say whether CN1CCc2c(sc3ncnc(N/N=C/c4cn(-c5ccccc5)nc4-c4ccc(Br)cc4)c23)C1 shows growth of 30% or more.
True

Say whether CCOC(=O)C1=C(N)N(c2ccc(Cl)cc2)C2=C(C(=O)CC(C)(C)C2)C1c1ccc(N2CCOCC2)cc1 (stereo not drawn) shows growth of 30% or more.
True

Say whether N#Cc1c(-c2ccc(F)cc2)nc(SCc2ccc([N+](=O)[O-])cc2)nc1N1CCOCC1 shows growth of 30% or more.
True

Say whether O=C(CSc1nnc(-c2c[nH]c3ccccc23)n1-c1ccccc1)Nc1ccc(C(=O)/C=C/c2ccc(Br)cc2)cc1 shows growth of 30% or more.
True

Say whether Cc1cc(C)cc(Oc2cccc(-c3c(C)nnn3C3CCN(CCN(C)C)CC3)n2)c1 shows growth of 30% or more.
True

Say whether CCOc1ccc(/C=N/NC(=O)Cn2nc(Cc3ccc([N+](=O)[O-])cc3)c3onc(C)c3c2=O)cc1 shows growth of 30% or more.
False

Say whether COc1ccsc1/C=N/NC(=O)c1[nH]c2ccc(Br)cc2c1-c1ccccc1 shows growth of 30% or more.
False

Say whether Cc1ccc(NCC(=O)Nn2c(COc3ccccc3)nc3ccccc3c2=O)cc1 shows growth of 30% or more.
False

Say whether O=C(O)CCCCCCCCCCN1C(=O)/C(=C/c2cnc(-c3ccccc3)s2)SC1=S shows growth of 30% or more.
True

Say whether Nc1nc(Nc2ccc(Cl)cc2)nn1Cc1cccc(Br)c1 shows growth of 30% or more.
True

Say whether O=C1Nc2ccc(Cl)cc2/C1=C/c1ccc(OCc2ccccn2)cc1 shows growth of 30% or more.
True

Say whether COc1ccc(-c2nc(Nc3ccccc3S(N)(=O)=O)c3ccccc3n2)cc1 shows growth of 30% or more.
True

Say whether O=C(CSc1ccc(-c2ccc(Cl)cc2)nn1)Nc1ccc(Cl)c(C(F)(F)F)c1 shows growth of 30% or more.
True

Say whether O=C(CSc1nnc(-c2c[nH]c3ccccc23)n1-c1ccccc1)Nc1ccc(C(=O)/C=C/c2cccc([N+](=O)[O-])c2)cc1 shows growth of 30% or more.
True

Say whether O=C1NC(=NC23CC4CC(CC(C4)C2)C3)N/C1=C\c1ccc2ncccc2n1 shows growth of 30% or more.
False

Say whether CCOC(=O)C1=C(N)N(c2ccccc2)C2=C(C(=O)CC(C)(C)C2)C1c1ccccc1OC (stereo not drawn) shows growth of 30% or more.
True
